target: hErbB3.mmh (soluble monomeric human ErbB3 extracellular domain with C-terminal myc-myc-hexahistidine tag) (human, UniProt P21860 20-642); experiment: SPR (Biacore), 25 C, mAb capture format
Sequence (P21860 other isoform, or with tags, fused parts or gaps): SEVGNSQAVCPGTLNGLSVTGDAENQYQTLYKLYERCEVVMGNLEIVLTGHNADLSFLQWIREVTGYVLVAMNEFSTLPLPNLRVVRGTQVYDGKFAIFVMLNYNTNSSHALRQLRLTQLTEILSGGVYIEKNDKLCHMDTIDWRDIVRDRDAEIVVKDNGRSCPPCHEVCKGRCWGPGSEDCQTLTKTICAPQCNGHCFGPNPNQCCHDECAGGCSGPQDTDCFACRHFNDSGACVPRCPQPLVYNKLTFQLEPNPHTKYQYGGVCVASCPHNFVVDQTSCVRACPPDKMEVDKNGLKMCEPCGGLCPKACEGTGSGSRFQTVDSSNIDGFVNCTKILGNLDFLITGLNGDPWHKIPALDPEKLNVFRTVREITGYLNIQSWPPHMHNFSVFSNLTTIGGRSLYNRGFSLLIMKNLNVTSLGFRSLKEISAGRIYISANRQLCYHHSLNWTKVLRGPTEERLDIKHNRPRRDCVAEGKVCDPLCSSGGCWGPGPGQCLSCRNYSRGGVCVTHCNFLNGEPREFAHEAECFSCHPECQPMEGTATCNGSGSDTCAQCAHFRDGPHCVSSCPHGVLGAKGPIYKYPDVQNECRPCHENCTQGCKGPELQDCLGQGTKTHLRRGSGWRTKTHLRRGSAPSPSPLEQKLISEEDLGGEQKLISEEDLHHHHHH
Attribute Measured: koff (s⁻¹)

H4H2092P (antibody, V domains shown, Fully human, human IgG4 Fc (H4H prefix)) VH: EVQLVESGGGVVRPGGSLRLSCAASGFTFEDYGMNWVRQVPGKGLEWVSGTNWNGGITGYTGSVKGRFTISRDNAKNSLYLQMNSLRAEDTALYHCARDSGDQDAFDIWGQGTMVTVSS VL: DIQLTQSPSFLSASVGDRVTITCWASQDISSYLAWYQQKPGKAPKLLIYAASTFQSGVPSRFSGSGSGTEFTLTISNLQPEDFATYYCQQLDSYPLSFGGGTKVEIKR : 0.000103
H4H2143P (antibody, V domains shown, Fully human, human IgG4 Fc (H4H prefix)) VH: EVQLVESGGGLVQPGRSLRLSCAASGFTFGDYAMHWVRQAPGKGLEWVSGINLNSGTIGYADSVKGRFTISRDNAKNSLYLQMNSLRAEDTAFYYCAKDIDGYYHYAMDVWGQGTTVTVSS VL: DVVMTQSPSFLSASVGDRVTITCWASQGISSYLAWYQQKPGKAPKLLIYDASTLESGVPSRFSGSGSGTEFTLTISNLQPEDFATYYCQQVNSYPLTFGGGTKVEIKR : 9.73e-05
H4H2147P (antibody, V domains shown, Fully human, human IgG4 Fc (H4H prefix)) VH: QVQLVESGGGLVKPGGSLRLSCAASGFTFSDFNMGWIRQAPGKGLEWVSHISGSGNVIYYADSVKGRFAISRDNGKNSLYLQVNSLRAEDTAVYYCARDIGDSDAFDIWGQGTMVTVSS VL: DIQLTQSPSFLSASVGDRVTITCWASQDISSYLAWYQQKPGKAPKLLIYGASTLESGVPSRFSGSGSGTEFTLTISSLQPEDVATYYCQQLNTYPLTFGGGTKVEIKR : 0.000108
H4H2151P (antibody, V domains shown, Fully human, human IgG4 Fc (H4H prefix)) VH: QVQLVESGGGVVQPGRSLRLSCAASGFTFSNYGMHWVRQAPGKGLEWVARIWYDGSNKYYADSVKGRFTISRDSSKNTLYLQMNSLRAEDTAVYYCAREGEQNLDYYPLDVWGQGTTVTVSS VL: DIVMTQSPSSLSASVGDRVTITCRASQDIRNDLGWYQQKPGKAPKLLIYAASSLQTGVPSRFSGSVSGTDFTLTISSLQPEDFATYYCLQDYTYPLTFGGGTKVEIK : 2.86e-05
H4H2084P (antibody, V domains shown, Fully human, human IgG4 Fc (H4H prefix)) VH: QVQLVESGGGVVQSGKSLRLSCVASGFTFSNYGMHWVRQTPGKGLEWVARIWFDGTNKYYTDSVKGRFTLSRDSSKNTLYLQMNSLRAEDTAVYFCAREESLELDHYVMDVWGQGTTVTVSS VL: AIQMTQSPSSLSASVGDRVTITCRASQDIRDDLGWFQQKPGKAPNLLIYAASSLQSGVPSRFSGSGSGTDFTLTISSLQPEDFATYYCLQDYNYPLTFGGGTKVEIKR : 5.96e-05

Origin of the recorded values: patent US20140072563A1
